target_system: CXCR7 (Homo sapiens, UniProt P25106)
Sequence (P25106 whole entry): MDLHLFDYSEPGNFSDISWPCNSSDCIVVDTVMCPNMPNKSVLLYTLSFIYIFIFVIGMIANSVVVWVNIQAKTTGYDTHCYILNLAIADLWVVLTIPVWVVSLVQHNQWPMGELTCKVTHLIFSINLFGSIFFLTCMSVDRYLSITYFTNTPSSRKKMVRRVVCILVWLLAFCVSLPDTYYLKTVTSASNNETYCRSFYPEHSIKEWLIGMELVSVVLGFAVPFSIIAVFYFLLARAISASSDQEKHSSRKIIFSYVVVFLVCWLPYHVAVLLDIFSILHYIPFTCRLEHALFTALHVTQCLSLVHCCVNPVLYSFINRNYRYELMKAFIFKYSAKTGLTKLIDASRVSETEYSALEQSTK
Sequence (P32121 whole entry partner): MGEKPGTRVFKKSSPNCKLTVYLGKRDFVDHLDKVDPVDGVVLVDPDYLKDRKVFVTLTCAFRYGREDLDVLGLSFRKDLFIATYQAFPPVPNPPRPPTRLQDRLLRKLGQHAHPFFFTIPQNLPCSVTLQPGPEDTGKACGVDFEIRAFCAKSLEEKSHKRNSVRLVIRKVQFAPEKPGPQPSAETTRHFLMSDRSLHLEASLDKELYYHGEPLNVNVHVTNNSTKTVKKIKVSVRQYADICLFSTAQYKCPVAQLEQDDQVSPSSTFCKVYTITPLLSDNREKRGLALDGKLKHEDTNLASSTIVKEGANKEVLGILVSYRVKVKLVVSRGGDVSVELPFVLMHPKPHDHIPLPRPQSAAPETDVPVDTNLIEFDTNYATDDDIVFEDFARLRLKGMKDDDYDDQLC
test_details: PathHunter CHO-K1 CXCR7 b-arrestin recruitment assay (CXCR7 agonistic activity)
assay_context: PathHunter CHO-K1 CXCR7 b-arrestin cell line
readout_label: pEC50
Remember, pEC50 is on a log scale: it is -log10 of the molar concentration.

Below are worked cases with known answers.
INSERT INTO measurements (mol_smiles, readout_label, assay_value) VALUES
  ('O=C(CNc1cccc2c1CCN(CC1CC1)C2)N(Cc1ccccc1C(F)(F)F)C[C@@H]1CCNC1', 'pEC50', 8.52),
  ('CCN1CCc2cccc(NCC(=O)N(CCN(C)C)Cc3ccc(F)cn3)c2C1', 'pEC50', 6.76),
  ('COCCN1CCc2c(cccc2NCC(=O)N(CCC(C)(C)C)Cc2ncccc2C)C1', 'pEC50', 6.94);

Shifting focus to the molecule that follows.
Reported pEC50 for O=C(CNc1cccc2c1CCN(CC1CC1)C2)N(CCN1CCCC1)Cc1ccc(F)cc1Cl was 8.22

----------
target_system: CXCR7 (Homo sapiens, UniProt P25106)
test_details: PathHunter CHO-K1 CXCR7 b-arrestin recruitment assay (CXCR7 agonistic activity)
assay_context: PathHunter CHO-K1 CXCR7 b-arrestin cell line
pEC50: −log10 of the molar value.
Tick yes if pEC50 is 7 or greater. Tick no if pEC50 is less than 7.

Below, 5 molecules whose answers are already recorded.
INSERT INTO results (mol_smiles, cat) VALUES
  ('O=C(Cc1cccc2c1CCN(CC1CC1)C2)N(CCN1CCCC1)Cc1ccccc1', 'yes'),
  ('CN(C)CCN(Cc1ccncc1Br)C(=O)CNc1cccc2c1CCN(CC1CC1)C2', 'yes'),
  ('CCOC(=O)CN(Cc1ccccc1)C(=O)CNc1cccc2c1CCN(CC1CC1)C2', 'no'),
  ('CN(C)CCN(Cc1ccncc1)C(=O)CNc1cccc2c1CCN(CC1CC1)C2', 'no'),
  ('CC(C)(O)CN(Cc1ncccc1Cl)C(=O)CNc1cccc2c1CN(C1CCC1)CC2', 'no');

Consider now this further molecule.
Textbook exercise: given the entry CNCCN(Cc1ccccc1Cl)C(=O)CNc1cccc2c1CCN(CC1CC1)C2 , state whether its pEC50 is greater than or equal to 7. yes

----------
target_system: CXCR7 (Homo sapiens)
test_details: PathHunter CHO-K1 CXCR7 b-arrestin recruitment assay (CXCR7 agonistic activity)
assay_context: PathHunter CHO-K1 CXCR7 b-arrestin cell line
Description: The CXCl12 receptor and CXCR7 agonistic activities of the compounds of formula (I) are determined in accordance with the following experimental method. The assay is using the PathHunter™ CHO-K1 CXCR7 b-arrestin cell line from DiscoverX. The system is based on the Enzyme Fragment Complementation Technology. Two complementing fragments of the b-galactosidase enzyme are expressed within stably transfected cells. […]
readout_label: pEC50
Remember, pEC50 is on a log scale: it is -log10 of the molar concentration.

Below are worked cases with known answers.
INSERT INTO assay_data (molecule, readout_label, assay_value) VALUES
  ('CCC(=O)N1CCc2c(cccc2NCC(=O)N(CCN(C)C)Cc2ccc(C)cc2)C1 [Example 16]', 'pEC50', 7.20),
  ('CN(CCN(Cc1ccccc1C(F)(F)F)C(=O)CNc1cccc2c1CCN(CC1CC1)C2)C1CCOC1 (racemic) [compound 448]', 'pEC50', 8.70),
  ('COCCN1CCc2c(cccc2NCC(=O)N(CCN2CCC(F)(F)CC2)Cc2ncccc2Cl)C1 [Example 305]', 'pEC50', 6.64);

Reported pEC50 for CNCCN(Cc1ncccc1C(F)(F)F)C(=O)CNc1cccc2c1CCN(C(=O)OCCF)C2 [compound 425] was 7.57

Reported pEC50 for CN(C)CCN(Cc1ccc(Nc2ccc(F)cc2)cn1)C(=O)CNc1cccc2c1CCN(CC1CC1)C2 [Example 285] was 6.39

Reported pEC50 for CCC(=O)N1CCc2c(cccc2NCC(=O)N(CCN(C)C)Cc2cccc(C)c2)C1 [Example 14] was 7.28

Reported pEC50 for COCCN1CCc2c(cccc2NCC(=O)N(Cc2ccccc2C(F)(F)F)CC(O)COC)C1 (centres unmarked) [Example 299] was 6.54

Reported pEC50 for COC(=O)N1CCc2c(cccc2NCC(=O)N(CCN(C)C)Cc2ccccc2)C1 [Example 113] was 7.59
